method_description: Approximate solubility tests in selected solvents
Format: physicochemical
stated_conditions: ethyl acetate, organic solvent or mixture; read-out: Solubility [S, mg/ml]
property: solubility

Reported solubility of Cc1c(OCC(F)(F)F)ccnc1C[S@@+]([O-])c1nc2ccccc2[nH]1 [SP134-FD-P1, dexlansoprazole sesquihydrate, reference compound] : ~204 mg/mL

Just for reference, patent US8318943B1 is where these values come from.
